Origin of the recorded values: the supplement of paper PMC6757056

B1: library; a variant is named by its letters at N, in order (parent)
chain: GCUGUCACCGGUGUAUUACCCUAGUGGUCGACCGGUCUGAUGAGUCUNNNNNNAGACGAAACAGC

Variants of: B1
Experiment Description: normalized RNA/DNA level without ligand (relative to sTRSVctl = 100) (log10 (% of sTRSVctl)); ligand: hypoxanthine (xanthine aptamer); higher = less ribozyme self-cleavage, higher mRNA level
Measurement Parameters: HEK293T, reporter: mCherry (pCS4076), ligand present: no
Each entry below carries its recorded normalized RNA/DNA level without ligand (log10).

| Record Sequence | Value Observed |
| --- | --- |
| GCUGUCACCGGUGUAUUACCCUAGUGGUCGACCGGUCUGAUGAGUCUGUUCGGAGACGAAACAGC | 1.6 |
| GCUGUCACCGGUGUAUUACCCUAGUGGUCGACCGGUCUGAUGAGUCUAGGUACAGACGAAACAGC | 1.72 |
| GCUGUCACCGGUGUAUUACCCUAGUGGUCGACCGGUCUGAUGAGUCUCCUUCAAGACGAAACAGC | 1.91 |
| GCUGUCACCGGUGUAUUACCCUAGUGGUCGACCGGUCUGAUGAGUCUACGUCCAGACGAAACAGC | 1.85 |
| GCUGUCACCGGUGUAUUACCCUAGUGGUCGACCGGUCUGAUGAGUCUACCCAUAGACGAAACAGC | 1.79 |

What does the record list as normalized RNA/DNA level without ligand (log10) for GCUGUCACCGGUGUAUUACCCUAGUGGUCGACCGGUCUGAUGAGUCUGUACGAAGACGAAACAGC ?
1.69

For GCUGUCACCGGUGUAUUACCCUAGUGGUCGACCGGUCUGAUGAGUCUGAAUCUAGACGAAACAGC , what is its reported normalized RNA/DNA level without ligand (log10)?
1.9

I am curious: what normalized RNA/DNA level without ligand (log10) value has been reported for GCUGUCACCGGUGUAUUACCCUAGUGGUCGACCGGUCUGAUGAGUCUUAUAAUAGACGAAACAGC ?
1.78
